Reference for the values: patent US11839613B2

- measurement-target: EP4 (Homo sapiens (Human), UniProt P35408)
- Sequence (P35408 whole entry): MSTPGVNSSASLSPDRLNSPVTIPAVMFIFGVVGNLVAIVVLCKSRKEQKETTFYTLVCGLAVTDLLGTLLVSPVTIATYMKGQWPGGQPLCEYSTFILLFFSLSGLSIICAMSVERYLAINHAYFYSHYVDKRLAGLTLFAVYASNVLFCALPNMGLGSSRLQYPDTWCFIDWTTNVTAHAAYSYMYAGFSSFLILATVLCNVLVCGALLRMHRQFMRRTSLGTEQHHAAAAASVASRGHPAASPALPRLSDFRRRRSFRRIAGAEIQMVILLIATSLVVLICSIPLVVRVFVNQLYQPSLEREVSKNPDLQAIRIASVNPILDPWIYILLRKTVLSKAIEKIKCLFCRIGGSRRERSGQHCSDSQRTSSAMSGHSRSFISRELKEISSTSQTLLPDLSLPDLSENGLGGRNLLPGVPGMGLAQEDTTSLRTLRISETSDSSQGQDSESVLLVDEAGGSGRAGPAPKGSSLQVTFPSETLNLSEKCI
- method-notes: hEP4 cAMP assay (BT549 breast cancer cells, HTRF cAMP)
- Format: cell-based
- measurement-conditions: antagonistic activity, PGE2 6 nM
- Text: Human tumor cell lines expressing endogenously either EP4 or EP2 are used and cAMP accumulation in cells upon PGE2 stimulation is monitored. […] As a detection method for cAMP the HTRF (homogeneous time resolved fluorescence) Cisbio kit (HTRF cAMP dynamic 2 kit 20'000 tests Cisbio Cat. #62AM4PEC) was used, which is based on a competitive immunoassay using a Cryptate-labeled anti-cAMP antibody and d2-labeled cAMP. […]
property-label: pIC50
As a rule, pIC50 stands for the negative log10 of the concentration, concentration in M.

Exercise: Looking for the measured pIC50 of CCOc1cc(-c2cc(NCCc3cc4ccccc4cc3C)ncn2)sc1C(=O)O , can you help?
Solution: 7.70

Exercise: # repeat for CCOc1cc(-c2cc(NCCc3ccc4c(ccn4C)c3)ncn2)sc1C(=O)O
Solution: 7.46

Exercise: # repeat for CCOc1cc(-c2cc(NCCc3cc4ccsc4cc3OC)ncn2)ccc1OCC(=O)O
Solution: 7.35

Exercise: # repeat for Fc1cc2ncccc2c(F)c1CCNc1cc(-c2ccc3ncccc3c2)ncn1
Solution: 7.01

Exercise: # repeat for CCOc1cc2ccccc2cc1CCNc1cc(-c2ccc(C(=O)O)c(OC3CCC3)c2)ncn1
Solution: 6.74

----------
- measurement-target: PTGER2 (EP2) (Homo sapiens (Human), UniProt P43116)
- Sequence (P43116 whole entry): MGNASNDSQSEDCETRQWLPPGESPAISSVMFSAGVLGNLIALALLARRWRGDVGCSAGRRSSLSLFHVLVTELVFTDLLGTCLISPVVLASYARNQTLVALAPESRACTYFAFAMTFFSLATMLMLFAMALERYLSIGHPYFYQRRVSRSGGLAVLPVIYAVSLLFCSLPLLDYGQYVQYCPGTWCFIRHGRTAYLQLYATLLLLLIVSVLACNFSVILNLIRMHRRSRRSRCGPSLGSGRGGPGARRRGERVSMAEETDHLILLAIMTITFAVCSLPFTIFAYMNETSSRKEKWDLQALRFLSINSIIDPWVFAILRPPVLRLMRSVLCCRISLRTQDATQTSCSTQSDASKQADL
- method-notes: hEP2 b-arrestin assay (PathHunter HEK 293 PTGER2 b-arrestin cells)
- measurement-conditions: antagonistic activity, beta-arrestin assay; read-out: hEP2 b-arr IC50
property-label: pIC50
As a rule, pIC50 stands for the negative log10 of the concentration, concentration in M.

Exercise: Looking for the measured pIC50 of COc1cc2ccccc2c(C)c1CCNc1cc(-c2ccc(C(=O)O)c(SC)c2)ncn1 , can you help?
Solution: 7.43

Exercise: # repeat for CCSc1cc(-c2cc(NCCc3cc4c(cc3OC)OCCO4)ncn2)ccc1C(=O)O
Solution: 7.25

Exercise: # repeat for CCCc1cc(-c2cc(NCCc3cc(F)c4sccc4c3)ncn2)sc1CC(=O)O
Solution: 6.61

Exercise: # repeat for CCOc1cc(-c2cc(NCCc3ccc4c(c3)OCO4)ncn2)sc1-c1noc(=O)[nH]1
Solution: 7.48

----------
- measurement-target: PTGER4 (EP4) (Homo sapiens (Human), UniProt P35408)
- method-notes: cell-based
property-label: pIC50
As a rule, pIC50 stands for the negative log10 of the concentration, concentration in M.

Exercise: Looking for the measured pIC50 of CCOc1cc(-c2cc(NCCc3cc4c(cc3OC)OCCO4)ncn2)cc(F)c1CC(=O)O [Example 373] , can you help?
Solution: 6.93

Exercise: # repeat for O=C(O)c1cccc2cc(-c3cc(NCCc4cc(F)c5sccc5c4)ncn3)[nH]c12 [Example 561]
Solution: 6.99

Exercise: # repeat for CCOc1cc(-c2cc(NCCc3ccc4scc(Cl)c4c3)ncn2)ccc1C(=O)O [Example 490]
Solution: 6.84

Exercise: # repeat for CSc1cc(-c2cc(NCCc3ccc4ccsc4c3)ncn2)ccc1C(=O)O [Ex 176]
Solution: 6.75

Exercise: # repeat for CCOc1cc(-c2cc(NCCc3cc4c(cc3OC(F)F)OCO4)ncn2)sc1C(=O)O [Ex 119]
Solution: 6.95

Exercise: # repeat for CCOc1cc(-c2cc(NCCc3ccc4occc4c3)ncn2)ccc1CC(=O)O [Ex 311]
Solution: 6.51

Exercise: # repeat for COc1cc2ccccc2c(C)c1CCNc1cc(-c2ccc(CC(=O)O)c(OC(F)(F)F)c2)ncn1 [Example 500]
Solution: 7.00

Exercise: # repeat for CCOc1cc(-c2cc(NCCc3cc4cccnc4cc3F)ncn2)sc1-c1noc(=O)[nH]1 [Example 348]
Solution: 8.70

----------
- measurement-target: PTGER2 (EP2) (Homo sapiens (Human))
- method-notes: hEP2 b-arrestin assay (PathHunter HEK 293 PTGER2 b-arrestin cells)
- measurement-conditions: antagonistic activity, beta-arrestin assay; read-out: hEP2 b-arr IC50
Assign a class from recorded IC50; defined classes: LOW: < 60 nM; MID: ≥ 60 nM and < 300 nM; HIGH: ≥ 300 nM

Exercise: Form: Item = O=C(O)c1ccc(-c2cc(NCCc3cc(F)c4sccc4c3)ncn2)cc1F ; Class = ?
Solution: HIGH

Exercise: # repeat for CCCc1cc(-c2cc(NCCc3cc4c(cc3C)OCCO4)ncn2)ccc1CC(=O)O
Solution: MID

Exercise: # repeat for CCOc1cc(-c2cc(NCCc3cc(Cl)c4c(c3)OCCO4)ncn2)sc1C(=O)O
Solution: MID

Exercise: # repeat for O=C(O)c1cc2cc(-c3cc(NCCc4ccc5sccc5c4)ncn3)ccc2o1
Solution: MID

Exercise: # repeat for CCOc1cc2sccc2cc1CCNc1cc(-c2ccc(OCC(=O)O)c(OCC)c2)ncn1
Solution: LOW

Exercise: # repeat for CCOc1cc(-c2cc(NCCc3cc(F)c4sccc4c3)ncn2)ccc1C(=O)NCC(C)(C)O
Solution: HIGH

Exercise: # repeat for CSc1cc(-c2cc(NCCc3ccc4scnc4c3)ncn2)ccc1C(=O)O
Solution: HIGH

Exercise: # repeat for COc1cc2c(cc1CCNc1cc(-c3ccc(CC(=O)O)c(OC(F)F)c3)ncn1)OCCO2
Solution: MID

Exercise: # repeat for CSc1cc(-c2cc(NCCc3cc4ccsc4cc3C)ncn2)ccc1CC(=O)O
Solution: LOW

Exercise: # repeat for CCCc1cc(-c2cc(NCCc3cc(F)c4sccc4c3)ncn2)ccc1C(=O)O
Solution: LOW

Exercise: # repeat for CCOc1cc(-c2cc(NCCc3cc4c(cc3OC)OCCO4)ncn2)ccc1OCC(=O)O
Solution: MID

Exercise: # repeat for CCOc1cc(-c2cc(NCCc3cc4c(cc3C#N)OCCO4)ncn2)sc1C(=O)O
Solution: LOW

Exercise: # repeat for CCCc1cc(-c2cc(NCCc3cc4c(cc3OC)OCCO4)ncn2)ccc1C(=O)O
Solution: LOW

Exercise: # repeat for CCOc1cc(-c2cc(NCCc3cc4c(cc3OC)OCCO4)ncn2)cc(F)c1CC(=O)O
Solution: MID

Exercise: # repeat for O=C(O)c1ccc(-c2cc(NCCc3cc4c(cc3OC(F)F)OCCO4)ncn2)cc1OC1CCC1
Solution: HIGH

Exercise: # repeat for CCCc1cc(-c2cc(NCCc3ccc4ccccc4c3C)ncn2)cc(F)c1C(=O)O
Solution: HIGH

Exercise: # repeat for O=C(O)c1coc2cc(-c3cc(NCCc4ccc5sccc5c4)ncn3)ccc12
Solution: HIGH

Exercise: # repeat for CCCc1cc(-c2cc(NCCc3cc4ccsc4c(F)c3OC)ncn2)ccc1C(=O)O
Solution: LOW

----------
- measurement-target: EP2 (Homo sapiens (Human), UniProt P43116)
- Sequence (P43116 whole entry): as above
- method-notes: hEP2 cAMP assay (SF295 glioblastoma cells, HTRF cAMP)
- measurement-conditions: antagonistic activity
Kindly supply the reported pIC50 values for the records listed here.
As a rule, pIC50 stands for the negative log10 of the concentration, concentration in M.

Exercise: Looking for the measured pIC50 of CCOc1cc2c(cc1CCNc1cc(-c3ccc(C(=O)O)c(SC)c3)ncn1)OCCO2 , can you help?
Solution: 8.40

Exercise: # repeat for CCOc1cc(-c2cc(NCCc3ccc4ccccc4c3C)ncn2)ccc1OCCC(=O)O
Solution: 6.45

Exercise: # repeat for CSc1cc(-c2cc(NCCc3ccc4ccsc4c3)ncn2)ccc1C(=O)O
Solution: 6.53

Exercise: # repeat for CSc1cc(-c2cc(NCCc3cc(C)c4c(c3)OCCO4)ncn2)ccc1C(=O)O
Solution: 6.16

Exercise: # repeat for CCOc1cc(-c2cc(NCCc3ccc4ccccc4c3C)ncn2)sc1CC(=O)O
Solution: 6.90

Exercise: # repeat for CSc1cc2c(cc1CCNc1cc(-c3ccc(C(=O)O)c(OC4CCC4)c3)ncn1)OCCO2
Solution: 6.36

Exercise: # repeat for CCOc1cc(-c2cc(NCCc3c(OC)cc4ccccc4c3C)ncn2)ccc1CC(=O)O
Solution: 6.67

Exercise: # repeat for CCOc1cc(-c2cc(NCCc3ccc4ccccc4c3C)ncn2)sc1CCC(=O)O
Solution: 6.72

Exercise: # repeat for CSc1cc(-c2cc(NCCc3cc4c(cc3C#N)OCCO4)ncn2)ccc1C(=O)O
Solution: 7.11

----------
Kindly supply the reported pIC50 values for the records listed here.
- measurement-target: EP2 (Homo sapiens (Human), UniProt P43116)
- method-notes: hEP2 cAMP assay (SF295 glioblastoma cells, HTRF cAMP)
- measurement-conditions: antagonistic activity
As a rule, pIC50 stands for the negative log10 of the concentration, concentration in M.

Exercise: Looking for the measured pIC50 of CCOc1cc(-c2cc(NCCc3cc4ccsc4cc3C#N)ncn2)ccc1CC(=O)O , can you help?
Solution: 6.60

Exercise: # repeat for CCOc1cc(-c2cc(NCCc3ccc4ccccc4c3F)ncn2)sc1C(=O)O
Solution: 6.56

Exercise: # repeat for CCOc1cc(-c2cc(NCCc3c(OC)cc4ccccc4c3C)ncn2)sc1C(=O)O
Solution: 8.10

Exercise: # repeat for CCOc1cc(-c2cc(NCCc3cc4ccccc4cc3OC)ncn2)ccc1OCC(=O)O
Solution: 6.49

Exercise: # repeat for CCOc1cc2ccccc2c(C)c1CCNc1cc(-c2ccc(C(=O)O)c(SC)c2)ncn1
Solution: 7.54

Exercise: # repeat for CCSc1cc(-c2cc(NCCc3c(F)cc4ncccc4c3F)ncn2)ccc1C(=O)O
Solution: 6.47

Exercise: # repeat for CCOc1cc(-c2cc(NCCc3cc4c(cc3C)OCCO4)ncn2)ccc1C(=O)O
Solution: 6.80

Exercise: # repeat for O=C(O)c1ccc(-c2cc(NCCc3c(F)cc4ncccc4c3F)ncn2)cc1OC1CCC1
Solution: 6.71

Exercise: # repeat for CCOc1cc(-c2cc(NCCc3cc4ccccc4cc3C#N)ncn2)ccc1C(=O)O
Solution: 5.77
